Experiment: Accelerated solution test of acid hydrolysis of yellow dyes (HPLC)
Assay type: physicochemical
Conditions: 1 mM dye in 6% Triton X100, pH 2.0, phosphate buffer, 50° C.
READOUT TYPE: t1/2 - time for 1/2 the dye to hydrolyze (h)

Use these answered entries as a reference point.
1. CCCCCCCCCCCCCCCCS(=O)(=O)Nc1ccc(Cl)c(NC(=O)C(=Nc2ccc(N(CC)CCNS(C)(=O)=O)cc2C)C(=O)C(C)(C)C)c1 [Cmp-11, reference compound]
16
2. CCCCCCCCCCCCCCCCCCOc1ccc(S(=O)(=O)Nc2ccccc2Cl)cc1NC(=O)C(=Nc1ccc(N(CC)CCNS(C)(=O)=O)cc1C)C(=O)N1CCc2ccccc21 [Cmp-6, reference compound]
78
3. CCCCCCCCCCCCCCCCOC(=O)c1ccc(Cl)c(NC(=O)C(=Nc2ccc(N(CC)CCNS(C)(=O)=O)cc2C)C(=O)c2c(C3CCCCC3)n(C)c3ccccc23)c1
101
4. CCCCCCCCCCCCn1c(-c2ccccc2)c(C(=O)C(=Nc2ccc(N(CC)CCNS(C)(=O)=O)cc2C)C(=O)Nc2ccc(S(C)(=O)=O)cc2Cl)c2ccccc21
500
5. CCCCCCCCCCCCCCCCOC(=O)c1ccc(Cl)c(NC(=O)C(=Nc2ccc(N(CC)CCNS(C)(=O)=O)cc2C)C(=O)c2c(C)n(C)c3ccccc23)c1
20

[a] CCCCCCCCCCCCOC(=O)c1ccc(Cl)c(NC(=O)C(=Nc2ccc(N(CC)CCNS(C)(=O)=O)cc2C)C(=O)C(C)(C)C)c1 [Cmp-10, reference compound]
[b] CCCCCCCCCCCCNS(=O)(=O)c1ccc(NC(=O)C(=Nc2ccc(N(CC)CCNS(C)(=O)=O)cc2C)C(=O)c2c(-c3ccccc3)n(C)c3ccccc23)c(Cl)c1
Looking at recorded values for t1/2 - time for 1/2 the dye to hydrolyze, does a or b come in lower? Identify your pick by its label.
a

###

Test: Spectrophotometric response of dyes in dilute acetonitrile solution
Format: physicochemical
Conditions: in M-1 cm-1 (unit assumed)
Description: As mentioned previously, many characteristics of a photographic image depend upon the spectral response of the dyes forming that image. The greater the molar extinction of an image-forming dye the less silver is needed to produce that dye; lower silver laydowns may lead to sharper photographic images. The color of a dye depends upon the position of its maximum light absorption (λ-max). With yellow dyes, the deeper (more bathochromic) the λmax of the dye the more orange the color of the dye. […]
# key: entry, value: Extinction

The following compounds have reported results that may help.
1. CCCCc1ccc(NC(=O)C(=Nc2ccc(N(CC)CCNS(C)(=O)=O)cc2C)C(=O)C(C)(C)C)cc1 [Cmp-7, reference compound]
11,800
2. CCCCc1ccc(NC(=O)C(=Nc2ccc(N(CC)CCNS(C)(=O)=O)cc2C)C(=O)c2c(C3CCCCC3)n(C)c3ccccc23)cc1
16,800

Read the next record carefully.
Item: CCCCc1ccc(NC(=O)C(=Nc2ccc(N(CC)CCNS(C)(=O)=O)cc2C)C(=O)c2c(-c3ccccc3)n(C)c3ccccc23)cc1 | Extinction: 19,700

###

Below: a set of entries, each annotated with reported Extinction.
Experiment: Spectrophotometric response of dyes in dilute acetonitrile solution
Assay type: physicochemical
Settings: in M-1 cm-1 (unit assumed)

Quick note, Extinction for CCCCc1ccc(NC(=O)C(=Nc2ccc(N(CC)CCNS(C)(=O)=O)cc2C)C(=O)c2c(-c3ccccc3)oc3ccccc23)cc1 [Coupler D-13] landed at 13,400

Record CCCCc1ccc(NC(=O)C(=Nc2ccc(N(CC)CCNS(C)(=O)=O)cc2C)C(=O)c2cccn2-c2ccccc2)cc1 [Cmp-3, reference compound] . Reported Extinction: 13,700

Reported Extinction of CCCCc1ccc(NC(=O)C(=Nc2ccc(N(CC)CCNS(C)(=O)=O)cc2C)C(=O)c2c3n(c4ccccc24)CCCC3)cc1 [Coupler D-6] : 17,300
